Where do these numbers come from? They come from the supplement of paper PMC7411054.

System: WPMY1-CANX-COX4
method: phenotypically active (imaging signature differs from DMSO and reproducible) at any of 0.3-9 uM (binary (1 = active, 0 = inactive)); higher = active
test_conditions: treatment time: 24 h
Where a name gives a salt, the structure may show the parent alone.
Returns: one label drawn from active, inactive

Lab log entry: N=C(N)NN=Cc1c(Cl)cccc1Cl [guanabenz] — outcome as called in the assay? inactive

Lab log entry: COc1ccc2cc1Oc1ccc(cc1)C[C@H]1c3cc(c(OC)cc3CCN1C)Oc1c(OC)c(OC)cc3c1[C@H](C2)N(C)CC3 [Tetrandrine] — outcome as called in the assay? active

Lab log entry: CCc1nn(CCCN2CCN(c3cccc(Cl)c3)CC2)c(=O)n1CCOc1ccccc1 [nefazodone] — outcome as called in the assay? inactive

Lab log entry: c1ccc2c(c1)CCCC2C1=NCCN1 (centres undefined) [tetrahydrozoline] — outcome as called in the assay? inactive

Lab log entry: CC(C)C1=CC2=CCC3[C@](C)(CCC[C@]3(C)C(=O)O)C2CC1 (some centres undefined) [Abietic Acid] — outcome as called in the assay? inactive

Lab log entry: COc1cc2c(NC3CCN(C(C)C)CC3)nc(N3CCC(F)(F)CC3)nc2cc1OCCCN1CCCC1 — outcome as called in the assay? active

Lab log entry: Cc1cccc(-c2nn(C(=S)Nc3ccccc3)cc2-c2ccnc3ccccc23)n1 — outcome as called in the assay? active

Lab log entry: O=C1Cc2cc(CCN3CCN(c4nsc5ccccc45)CC3)c(Cl)cc2N1 [ziprasidone] — outcome as called in the assay? inactive

Lab log entry: CC(C)CCN1c2nc(Nc3cc(F)c(O)c(F)c3)ncc2N(C)C(=O)C1C (centres undefined) — outcome as called in the assay? active

Lab log entry: COC(=O)C(Cc1ccc(OCCn2c(=O)sc3cc(C(=O)c4ccccc4)ccc32)cc1)C(=O)OC — outcome as called in the assay? inactive

Lab log entry: COc1ccc(Cn2ccc3ccc(C(=O)NO)cc32)cc1 — outcome as called in the assay? inactive

Lab log entry: CCn1c(=O)n([C@H]2CCCN(c3nccc(-c4cc5ccccc5o4)n3)C2)c2ccccc21 — outcome as called in the assay? active

Lab log entry: C#CCN[C@@H]1CCc2ccccc21 [rasagiline] — outcome as called in the assay? inactive

Lab log entry: CCCc1nc2c(C)cc(-c3nc4ccccc4n3C)cc2n1Cc1ccc(-c2ccccc2C(=O)O)cc1 [telmisartan] — outcome as called in the assay? inactive

Lab log entry: NC(=O)c1ncn([C@@H]2O[C@H](CO)[C@@H](O)[C@H]2O)c1N — outcome as called in the assay? inactive

Lab log entry: COC(=O)[C@H]1[C@H]2C[C@H]3c4[nH]c5ccccc5c4CCN3C[C@H]2CC[C@@H]1O [Rauwolscine hydrochloride] — outcome as called in the assay? inactive

Lab log entry: O=C(O)[C@H](O)[C@@H](O)[C@H](O[C@@H]1O[C@H](CO)[C@H](O)[C@H](O)[C@H]1O)[C@H](O)CO [Lactobionic acid] — outcome as called in the assay? inactive

Lab log entry: Cc1cc(O)cc2c1C(=O)Oc1cc3c(c(O)c1O2)C(=O)OC3 [Variolaric acid] — outcome as called in the assay? inactive

Lab log entry: CCCC(CCC)C(=O)O [Valproic acid, sodium salt] — outcome as called in the assay? inactive
